Recorded pKd by entry
- Target or test system: T1, PUF4 RNA-binding domain (Saccharomyces cerevisiae, UniProt P25339 537-888)
- T1 sequence: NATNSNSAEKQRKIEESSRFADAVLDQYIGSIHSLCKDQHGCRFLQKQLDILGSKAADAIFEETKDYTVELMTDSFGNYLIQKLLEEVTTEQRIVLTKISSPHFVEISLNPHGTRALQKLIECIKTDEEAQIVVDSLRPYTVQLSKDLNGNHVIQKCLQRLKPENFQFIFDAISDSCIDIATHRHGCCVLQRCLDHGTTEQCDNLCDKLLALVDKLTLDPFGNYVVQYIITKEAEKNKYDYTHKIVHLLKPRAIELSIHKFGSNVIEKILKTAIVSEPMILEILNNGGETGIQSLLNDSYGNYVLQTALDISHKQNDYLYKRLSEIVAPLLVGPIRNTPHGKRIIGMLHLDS
- Protocol notes: Mg; RNA-MaP; 20 mM Na-HEPES pH 7.4, 30 mM KOAc, 0.75 mM MgCl2, 0.1% Tween-20, 5% glycerol, 0.1 mg/mL BSA, 2 mM DTT; 25 C; 0.0125-409.6 nM protein
- Particulars: tags: N-His6-TEV cleaved; C-SNAP kept, Cy3B-labelled; label: tethered on chip by stalled RNA polymerase
pKd: −log10 of the molar value.
Readout label: pKd

>  <Binder>
Id_ii_S2_P3E.2_K3.1_C3.2_[C-2A]_[T-1C]_H3.1_A3.1_F3.1_T3.2_[A10C] (ssRNA) RNA: UUUGAUUAAUAUGAUAUCGUUCUUUCUACUGUAUAUAUCUUCUUUCUCGAUAUCAUAUUAAUCUUU

>  <Readout label>
pKd

>  <Qualifier operator>
=

>  <Experimental value>
8.77

$$$$
>  <Binder>
UCUCUUUGUAUAUUAUCUCUCUU (ssRNA) [Ie_S1_P4E.1_K4.1_C4.1_H4.1_A4.1_F4.1_[+9TC]_T4.1]

>  <Readout label>
pKd

>  <Qualifier operator>
=

>  <Experimental value>
9.36

$$$$
>  <Binder>
ACAAACAUACACUAUAGAACAAAC (ssRNA) [Id_ii_S3_P3E.4_K3.3_C3.2_[C-2A]_H3.3_A3.1_F3.1_T3.2_[T9G]]

>  <Readout label>
pKd

>  <Qualifier operator>
=

>  <Experimental value>
5.88

$$$$
>  <Binder>
UCUCUUUUCUCUGUAUUAUUAUCUCUU (ssRNA) [Ie_S1_P5E.1_K5.1_C5.1_H5.1_[+1TCTCT]_A5.1_F5.1_T5.1]

>  <Readout label>
pKd

>  <Qualifier operator>
=

>  <Experimental value>
8.13

$$$$
>  <Binder>
Ic_S2_P5E.1_K5.1_C5.1_H5.1_A5.1_[T5A]_[A7C]_F5.1_[T8C]_[T9C]_T5.1 (ssRNA) RNA: UUUGAUUAAUAUGAUAUCGUUCUUUCUUGUAAUCCCAUUCUUUCUCGAUAUCAUAUUAAUCUUU

>  <Readout label>
pKd

>  <Qualifier operator>
=

>  <Experimental value>
6.17

$$$$
>  <Binder>
Id_ii_S4_P5E.2_K5.1_C5.2_[C-2T]_H5.1_A5.1_F5.1_T5.2_[A12C] (ssRNA) RNA: UUUGACAACUGAUCGUUCUUUCUUUUGUAUUAUUAUCUUCUUUCUCGAUCAGUUGUCUUU

>  <Readout label>
pKd

>  <Qualifier operator>
=

>  <Experimental value>
8.64

$$$$
>  <Binder>
Id_iii_S4_P4E.8_K4.4_C4.3_H4.1_A4.2_F4.1_T4.2_[T11C] (ssRNA) RNA: UUUGACAACUGAUCGUUCUUUCUUCUUGUAUUUUAGCUUCUUUCUCGAUCAGUUGUCUUU

>  <Readout label>
pKd

>  <Qualifier operator>
=

>  <Experimental value>
8.98

$$$$
>  <Binder>
UCUCUUAAACACUAUAACUCUCUU (ssRNA) [Id_ii_S1_P3E.4_K3.3_C3.2_[C-2A]_[T-1A]_H3.3_A3.1_F3.1_T3.2_[T9A]_[A10C]]

>  <Readout label>
pKd

>  <Qualifier operator>
<

>  <Experimental value>
5.64

$$$$
>  <Binder>
Ic_S2_P5E.1_K5.1_C5.1_H5.1_A5.1_[T5G]_[A7T]_F5.1_[T8G]_[T9C]_[A10T]_T5.1 (ssRNA) RNA: UUUGAUUAAUAUGAUAUCGUUCUUUCUUGUAGUUGCUUUCUUUCUCGAUAUCAUAUUAAUCUUU

>  <Readout label>
pKd

>  <Qualifier operator>
=

>  <Experimental value>
6.36

$$$$
>  <Binder>
Ib_S4_P4E.1_K4.1_C4.1_H4.1_[T1A]_A4.1_[A6T]_F4.1_T4.1 (ssRNA) RNA: UUUGACAACUGAUCGUUCUUUCUAGUAUUUUAUUCUUUCUCGAUCAGUUGUCUUU

>  <Readout label>
pKd

>  <Qualifier operator>
=

>  <Experimental value>
5.82

$$$$
>  <Binder>
UCUCUUCGUAUAUUGUCUCUU (ssRNA) [Ib_S1_P4E.1_K4.1_C4.1_H4.1_[T1C]_A4.1_F4.1_[A9G]_T4.1]

>  <Readout label>
pKd

>  <Qualifier operator>
=

>  <Experimental value>
6.18

$$$$
>  <Binder>
ACAAACAGUAUUUAACAAAC (ssRNA) [Ib_S3_P3E.1_K3.1_C3.1_H3.1_[T1A]_A3.1_[A6T]_F3.1_T3.1]

>  <Readout label>
pKd

>  <Qualifier operator>
<

>  <Experimental value>
5.64

$$$$

Hello, the source for this data is paper PMC9352680, in case you need it.
